- Tested on: MT4
- Test Protocol: Compound was tested for inhibition of the cytopathic effects of HIV-1 (IIIB) in MT-4 cells
- Format: functional, cell-based
- Assay Setup: Homo sapiens
Measured EC50 of individual entries
Attribute Measured: EC50 (nM)

- O=c1[nH]c2ccc(Cl)cc2n1Cc1c(F)cccc1F: 240
- Fc1cccc(F)c1C1SCc2nc3ccccc3n21 (configuration not stated): 1390

====

- Test system: MT4
- Test Protocol: Ratio of CC50 to that of EC50
- Assay type: functional, Homo sapiens
Measured Ratio of individual entries
Attribute Measured: Ratio

- O=c1oc2ccc(Cl)cc2n1Cc1c(F)cccc1F: >91
- Oc1nc2ccc(Cl)cc2n1Cc1cccc2ccccc12: 57
- O=c1[nH]c2ccc(Cl)cc2n1Cc1c(F)cccc1F: >1766
- Oc1nc2ccc(Cl)cc2n1Cc1c(Cl)cccc1Cl: 83
- Oc1nc2ccc(Cl)cc2n1Cc1ccc2ccccc2c1: >64
- Fc1cccc(F)c1C1SCc2nc3ccccc3n21 (stereo not drawn): 45
- CC(C)c1ccc(Cn2c(O)nc3ccc(Cl)cc32)cc1: >147
- Oc1nc2cc(Cl)ccc2n1Cc1c(F)cccc1F: >14

====

- Tested on: MT4
- Test Protocol: Concentration required to reduce HIV-1-induced cytopathic effect in MT-4 cells
- Assay type: functional, cell-based
- Assay Setup: Homo sapiens
Attribute Measured: EC50 (µM)

* O=c1oc2ccc(Cl)cc2n1Cc1c(F)cccc1F | 3.72
* Oc1nc2ccc(Cl)cc2n1Cc1c(Cl)cccc1Cl | 3.79
* CC(C)c1ccc(Cn2c(O)nc3ccc(Cl)cc32)cc1 | 2.83
* O=c1[nH]c2ccc(Cl)cc2n1Cc1c(F)cccc1F | 0.24
* Oc1nc2ccc(Cl)cc2n1Cc1cccc2ccccc12 | 0.87
* Oc1nc2cc(Cl)ccc2n1Cc1c(F)cccc1F | 29.6
* Fc1cccc(F)c1C1SCc2nc3ccccc3n21 (stereo not drawn) | 1.1
* Oc1nc2ccc(Cl)cc2n1Cc1ccc2ccccc2c1 | 6.35

====

- Assayed Target: Human immunodeficiency virus type 1 reverse transcriptase (Human immunodeficiency virus 1)
Attribute Measured: IC50

* Oc1nc2ccc(Cl)cc2n1Cc1cccc2ccccc12 | 12.7 µM
* Fc1cccc(F)c1C1SCc2nc3ccccc3n21 (centres undefined) [THIAZOLOBENZIMIDAZOLE] | 24.6 µM
* Oc1nc2cc(Cl)ccc2n1Cc1c(F)cccc1F | 60 µM
* Oc1nc2ccc(Cl)cc2n1Cc1c(Cl)cccc1Cl | 7.5 µM
* CC(C)c1ccc(Cn2c(O)nc3ccc(Cl)cc32)cc1 | 16.2 µM
* Oc1nc2ccc(Cl)cc2n1CC1CCCCC1 | 50 µM
* Oc1nc2ccc(Cl)cc2n1Cc1ccc2ccccc2c1 | 5.2 µM
* O=c1oc2ccc(Cl)cc2n1Cc1c(F)cccc1F | 20 µM
* O=c1[nH]c2ccc(Cl)cc2n1Cc1c(F)cccc1F | 2.86 µM

Ref: ChEMBL document CHEMBL1144429
